Target or system Lysine-specific demethylase 5B (Homo sapiens); metric pIC50; compiled from varied reports.
pIC50: −log10 of the molar value.

compound | measured_result
CN1CCCC(Cn2cnc(-c3cc(C(=O)O)ccn3)c2)C1 (stereo not drawn) | ≥ 7.00
O=C(O)c1ccncc1NCc1ccc(Cl)cc1Cl | ≥ 7.00
Oc1nc(Oc2cnn(C(c3ccccc3)C3CC3)c2)nc2cnccc12 (stereo not drawn) | ≥ 7.00
O=C(O)c1ccnc(-c2cn(CCNCc3ccccc3Cl)cn2)c1 | ≥ 7.00

Ask | Identify the measured pIC50 of "Cn1cnc(-c2nccc3c(=O)[nH]cnc23)c1" for Lysine-specific demethylase 5B (Homo sapiens).
Reply | 6.00 to 7.00

Ask | Identify the measured pIC50 of "Oc1nc(Oc2ccnc(N3CCNCC3)c2)nc2cnccc12" for Lysine-specific demethylase 5B (Homo sapiens).
Reply | ≥ 7.00

Ask | Identify the measured pIC50 of "CCCn1cnc(-c2cc(C(=O)O)ccn2)c1-c1ccc(Cl)c(F)c1" for Lysine-specific demethylase 5B (Homo sapiens).
Reply | ≥ 7.00

Ask | Identify the measured pIC50 of "CN(C)CCOc1nc(O)c2ccnc(-c3cn(C)cn3)c2n1" for Lysine-specific demethylase 5B (Homo sapiens).
Reply | 6.00 to 7.00

Ask | Identify the measured pIC50 of O=S(=O)(C1CC1)N1CCCC(n2cc(Oc3nc(O)c4ccncc4n3)cn2)C1 (stereo in doubt) for Lysine-specific demethylase 5B (Homo sapiens).
Reply | ≥ 7.00

Ask | Identify the measured pIC50 of "CCc1cc(Cl)ccc1COc1ccnn1-c1cc(C(=O)O)ccn1" for Lysine-specific demethylase 5B (Homo sapiens).
Reply | 6.00 to 7.00

Ask | Identify the measured pIC50 of "O=C(O)c1ccncc1NCc1ccc(Br)cc1" for Lysine-specific demethylase 5B (Homo sapiens).
Reply | ≥ 7.00

----------
Target or system Lysine-specific demethylase 5B (Homo sapiens, UniProt Q9UGL1); metric IC50; compiled from varied reports.

molecule | IC50
Oc1nc(OCCOc2ccccc2)nc2cnccc12 | 100 to 1000 nM
CCc1cccc(Oc2nc(O)c3ccncc3n2)c1 | ≤ 100 nM
Oc1nc(OCc2ccc(C(F)(F)F)cc2)nc2cnccc12 | 1000 to 10000 nM
O=C(O)c1ccncc1Nc1nn(CCN2CCOCC2)c2ccc(F)cc12 | < 100 nM
O=C(O)c1ccnc(-c2cn(Cc3cccc(-c4ccccc4)c3)cn2)c1 | ≤ 100 nM

Ask | Return reported IC50; argument: "Cc1cc(OCc2ccccc2)n(-c2cc(C(=O)O)ccn2)n1"
Reply | < 100 nM

Ask | Return reported IC50; argument: "CCOc1cc(Cl)ccc1-c1c(-c2cc(C(=O)O)ccn2)ncn1C"
Reply | ≤ 100 nM

Ask | Return reported IC50; argument: "O=C(O)c1c(NCc2ccccc2F)ccc2nccn12"
Reply | > 1000 nM

Ask | Return reported IC50; argument: "Cn1c(=O)n(C)c2cc(CNc3ccc4nccn4c3C(=O)O)ccc21"
Reply | 500 to 1000 nM

Ask | Return reported IC50; argument: "O=C(O)c1cc(OCCN2CCC(c3cc(Cl)cc(Cl)c3)CC2)cc2nccn12"
Reply | > 1000 nM

Ask | Return reported IC50; argument: "O=C(O)c1ccncc1Nc1cn(CCC(F)(F)F)c2ccc(Cl)cc12"
Reply | < 100 nM

Ask | Return reported IC50; argument: "Oc1nc(Oc2ccc(Cl)c(Cl)c2)nc2cnccc12"
Reply | ≤ 100 nM
